- Test system: human cervical carcinoma cell line HeLa
- assay method text: MTS cytotoxicity assay, HeLa
- Type: cell-based
- conditions used: 48 h treatment
quantity kind: IC50 (µM)
Numbers only, in µM.

Tell me IC50 reported for Cc1ccccc1NS(=O)(=O)c1ccc2c(c1)/C(=C/c1nc3ccccc3[nH]1)C(=O)N2 [Indo 5, reference compound]
19.6

###

- Tested on: human lung carcinoma A549
- assay method text: MTS cytotoxicity assay, A549
- Type: cell-based
- conditions used: 48 h treatment
quantity kind: IC50 (µM)
Give bare numbers, in µM.

Would you please give the reported IC50 of Cc1ccccc1NS(=O)(=O)c1ccc2c(c1)/C(=C/c1nc3ccccc3[nH]1)C(=O)N2 [Indo 5, reference compound] with human lung carcinoma A549?
29.2

###

- target or system: tyrosine kinase
- assay method text: Tyrosine kinase inhibitory activity assay (self-made ELISA kit)
- conditions used: tyrosine kinase tissue extract, 37 °C 30 min
Exam item: assign satisfied to entries whose IC50 is below 4 µM and not satisfied to entries at or above 4 µM. Note that a value of exactly 4 µM receives not satisfied.

[
  {
    "compound": "O=C1Nc2ccccc2/C1=C/[S+]([O-])Cc1ccc(Cl)cc1 (stereo not drawn)",
    "class assignment": "satisfied"
  },
  {
    "compound": "Cc1cccc(C[S+]([O-])/C=C2\\C(=O)Nc3ccccc32)c1 (stereo not drawn)",
    "class assignment": "satisfied"
  },
  {
    "compound": "Cc1ccc(C[S+]([O-])/C=C2\\C(=O)Nc3ccccc32)cc1 (stereo not drawn)",
    "class assignment": "not satisfied"
  },
  {
    "compound": "O=C1Nc2ccccc2/C1=C/[S+]([O-])Cc1ccccc1Cl (stereo not drawn)",
    "class assignment": "not satisfied"
  },
  {
    "compound": "O=C1Nc2ccc(Br)cc2/C1=C/[S+]([O-])Cc1ccccc1F (stereo not drawn)",
    "class assignment": "not satisfied"
  }
]

Consider the compound O=C1Nc2ccccc2/C1=C/[S+]([O-])Cc1cccc(Br)c1 (stereo not drawn) . Is its IC50 strictly less than 4 µM?
satisfied

Consider the compound O=C1Nc2ccccc2/C1=C/[S+]([O-])Cc1ccccc1F (stereo not drawn) . Is its IC50 strictly less than 4 µM?
satisfied

Consider the compound O=C1Nc2ccc(Br)cc2/C1=C/[S+]([O-])Cc1ccccc1 (stereo not drawn) . Is its IC50 strictly less than 4 µM?
satisfied

Consider the compound O=C1Nc2ccccc2/C1=C/[S+]([O-])Cc1ccccc1 (stereo not drawn) . Is its IC50 strictly less than 4 µM?
satisfied

###

quantity kind: melting point

Record excerpt, results attached:
[
  {
    "compound": "O=C1Nc2ccccc2/C1=C/[S+]([O-])Cc1ccc(Br)cc1 (stereo not shown)",
    "observed result": "195 to 196 °C"
  },
  {
    "compound": "O=C1Nc2ccccc2/C1=C/[S+]([O-])Cc1ccccc1Br (stereo not shown)",
    "observed result": "198 to 199 °C"
  },
  {
    "compound": "Cc1ccc(C[S+]([O-])/C=C2\\C(=O)Nc3ccccc32)cc1 (stereo not shown)",
    "observed result": "186 to 188 °C"
  },
  {
    "compound": "O=C1Nc2ccccc2/C1=C/[S+]([O-])Cc1ccccc1F (stereo not shown)",
    "observed result": "183 to 184 °C"
  },
  {
    "compound": "O=C1Nc2ccc(Br)cc2/C1=C/[S+]([O-])Cc1ccccc1 (stereo not shown)",
    "observed result": "200 to 201 °C"
  }
]

I would be grateful if you could provide melting point for each of the following entries.
1. O=C1Nc2ccccc2/C1=C/[S+]([O-])Cc1ccc(F)cc1 (stereo not shown)
2. Cc1ccccc1C[S+]([O-])/C=C1\C(=O)Nc2ccccc21 (stereo not shown)
3. O=C1Nc2ccccc2/C1=C/[S+]([O-])Cc1cccc(Cl)c1 (stereo not shown)
4. O=C1Nc2ccccc2/C1=C/[S+]([O-])Cc1cccc(Br)c1 (stereo not shown)
5. O=C1Nc2ccccc2/C1=C/[S+]([O-])Cc1ccc(Cl)cc1 (stereo not shown)

193 to 194 °C
198 to 199 °C
192 to 194 °C
193 to 194 °C
193 to 195 °C

I would be grateful if you could provide melting point for each of the following entries.
1. O=C1Nc2ccccc2/C1=C/[S+]([O-])Cc1cccc(F)c1 (stereo not shown)
2. COc1cccc(C[S+]([O-])/C=C2\C(=O)Nc3ccccc32)c1 (stereo not shown)
3. Cc1cccc(C[S+]([O-])/C=C2\C(=O)Nc3ccccc32)c1 (stereo not shown)
4. O=C1Nc2ccccc2/C1=C/[S+]([O-])Cc1ccccc1Cl (stereo not shown)
5. O=C1Nc2ccc(Br)cc2/C1=C/[S+]([O-])Cc1ccccc1F (stereo not shown)
6. O=C1Nc2ccccc2/C1=C/[S+]([O-])Cc1ccccc1 (stereo not shown)

186 to 187 °C
181 to 182 °C
174 to 175 °C
202 to 203 °C
208 to 209 °C
191 to 192 °C
